# growth inhibition per record follows
assay: NCI Yeast Anticancer Drug Screen. Data for the bub3 strain (AID 167); details: S. cerevisiae bub3 mutant strain, at 50.0 µM (retest, dose inferred, filed as 5.0), stronger effect = higher value
About 79,000 compounds went through this panel and 15% of them were active in at least one assay; those are over-represented in the sample as a whole. *1 amine or outer side, *2 acyl side, *3 side chain or, on linkers, in order; H or OH if unused. Where a SMILES comes first, the peptide text is derived from it. [ ]: non-standard residue; d: D form. The star is where a group is joined. X5 = CCC(=O)CC1CC(C)CC(C(=O)[*:2])N1[*:1]; X4 = CCCCCCCCC(C)C(=O)*; Aib = CC(C)(N)C(=O)O; X6 = CC(CN(C)CCO)N*
experimental readout: growth inhibition (%)

# molecule, experimental readout, unit of measure, assay result
measured = [
    ("C/C(=N/NC(N)=S)c1ccc(C)cc1", "growth inhibition", "%", -8),
    ("Cc1oc2c(C)c3oc(=O)cc(C)c3cc2c1CCl", "growth inhibition", "%", 97),
    ("Oc1c(Cl)cc(Cl)cc1C(c1cc(Cl)cc(Cl)c1O)C(Cl)(Cl)Cl", "growth inhibition", "%", 99),
    ("C=COC(=O)c1ccccc1C(=O)OCCCC", "growth inhibition", "%", 27),
    ("COc1cc(N(CCC#N)CCC#N)ccc1/C(N=Nc1ccc([N+](=O)[O-])cc1)=N/NC(=O)c1cc(Br)ccc1O", "growth inhibition", "%", 48),
    ("Clc1ccc(-n2ncc3c(NCCCN4CCOCC4)ncnc32)cc1", "growth inhibition", "%", 77),
    ("CCCCCCCCC(C)C(=O)N1CCCC1C(=O)N1C(CC(=O)CC)CC(C)CC1C(=O)NC(C)C(=O)NC(C)(C)C(=O)NC(C)(C)C(=O)NC(C(=O)NC(C)C(=O)NC(C)(C)C(=O)NC(C)(C)C(=O)NC(C)CN(C)CCO)C(C)CC (configuration not stated) (X4-P[X5]A[Aib][Aib]IA[Aib][Aib]-X6; configuration not given here)", "growth inhibition", "%", 99),
    ("[O-][n+]1cccc2cccc(O)c21", "growth inhibition", "%", 20),
    ("O=C1C=CC(=O)C2=C1CC=CC2", "growth inhibition", "%", 100),
    ("N=C(N)Sc1cccc[n+]1[O-]", "growth inhibition", "%", 99),
    ("CC(C)(C)c1ccc(CCO)cc1", "growth inhibition", "%", 6),
    ("CN1CCc2cc3c(c4c2C1C(O)c1ccccc1-4)OCO3 (configuration not stated)", "growth inhibition", "%", 27),
    ("O=C(c1ccccc1)C(O)C(Br)(CBr)c1ccccc1 (configuration not stated)", "growth inhibition", "%", 98),
    ("COc1ccc2c(c1)C(N)=C(c1ccccc1)C2=O", "growth inhibition", "%", 19),
    ("CCCCC(C=O)(C=C=C(C)C)CC (configuration not stated)", "growth inhibition", "%", 2),
    ("COc1ccc2nc3c4c(nccc4c2c1)-c1ncccc1C3=O", "growth inhibition", "%", 96),
    ("COC(=O)[C@]1(C)CCC[C@]2(C)c3ccc(C(C)C)cc3C(=O)[C@@H](Br)[C@@H]12", "growth inhibition", "%", 52),
    ("Cc1cc(Br)c2nsnc2c1[N+](=O)[O-]", "growth inhibition", "%", 87),
    ("O=C1C=CC(=O)c2c(O)c(CO)c(CO)c(O)c21", "growth inhibition", "%", 98),
    ("O=C(O)c1cc2c(s1)C(=O)c1sccc1C2=O", "growth inhibition", "%", 79),
    ("CC1=NN(c2ccccc2)C(=O)C1(Br)Br", "growth inhibition", "%", 98),
    ("C/C(=N\\NC(=S)N1CC2CCC(CC2)C1)c1ccccn1", "growth inhibition", "%", 80),
]

---

assay: NCI Yeast Anticancer Drug Screen. Data for the cln2 rad14 strain (AID 165);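 also: 0% = growth equal to vehicle treated cultures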; details: S. cerevisiae cln2 rad14 strain, at 50.0 µM
Compounds without any hit were thinned out: in the full panel of roughly 79,000, 15% have a hit. Activity calls are given as the source filed them. Cut-off read from the data, not from the text of the source: active = growth inhibition above about 70%; inactive = the rest. *1 amine or outer side, *2 acyl side, *3 side chain or, on linkers, in order; H or OH if unused. Where a SMILES comes first, the peptide text is derived from it. [ ]: non-standard residue; d: D form. The star is where a group is joined. X5 = CCC(=O)CC1CC(C)CC(C(=O)[*:2])N1[*:1]; X4 = CCCCCCCCC(C)C(=O)*; Aib = CC(C)(N)C(=O)O; X6 = CC(CN(C)CCO)N*
Possible outcomes: true = active, false = inactive

# compound, assigned class
records = [
    ("CCN(CC)CCNC(Cc1ccccc1)c1ccc(OCc2ccccc2)cc1 (stereo not given)", "false"),
    ("OCCOSCCO", "false"),
    ("Cc1ccc(/C=C2\\CNC/C(=C\\c3ccc(C)cc3)C2=O)cc1", "true"),
    ("N#Cc1c2ccccc2nc2ccccc12", "false"),
    ("O=C1/C(=C/c2ccccn2)CCc2ccccc21", "false"),
    ("CCCCCCCCC(C)C(=O)N1CCCC1C(=O)N1C(CC(=O)CC)CC(C)CC1C(=O)NC(C)C(=O)NC(C)(C)C(=O)NC(C)(C)C(=O)NC(C(=O)NC(C)C(=O)NC(C)(C)C(=O)NC(C)(C)C(=O)NC(C)CN(C)CCO)C(C)CC (stereo not given) (X4-P[X5]A[Aib][Aib]IA[Aib][Aib]-X6; configuration not given here)", "true"),
    ("O=C/C=C/c1ccc([N+](=O)[O-])cc1", "false"),
    ("C(=N\\Nc1ccc2ccccc2n1)/c1ccccn1", "true"),
    ("O=C(CCc1ccccc1)ON1C(=S)NC(c2ccccc2)(c2ccccc2)C1=S", "true"),
    ("Cc1ccc(Nc2ccc(O)c3c2C(=O)c2c(O)ccc(Nc4ccc(C)cc4)c2C3=O)cc1", "true"),
]

---

assay: NCI Yeast Anticancer Drug Screen. Data for the sgs1 mgt1 strain (AID 161);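 also: 0% = growth of cultures given vehicle only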; settings: S. cerevisiae sgs1 mgt1 strain, at 50.0 µM
The panel holds about 79,000 compounds, 15% with a hit somewhere; the sample as a whole holds those more often. Activity calls are given as the source filed them. No stated cut-off is given here; in the data, active means growth inhibition above about 70%; inactive means the rest.
Possible outcomes: active, inactive

# compound, assigned class
records = [
    ("CC1C(c2ccccc2)OCCN1C(=S)Nc1ccc(S(=O)(=O)N2CCCCC2)cc1 (configuration not stated)", "active"),
    ("Cc1nn(CCO)c(C)c1N=[N+]([O-])c1c(C)nn(CCO)c1C", "active"),
    ("COc1ccc(C(Cn2ccnc2)Sc2ccc(Cl)c(Cl)c2)cc1 (configuration not stated)", "active"),
    ("Nc1nc(N)c2cc(Sc3cccc(C(F)(F)F)c3)ccc2n1", "active"),
    ("CC1(C)OC2C(COC(c3ccccc3)(c3ccccc3)c3ccccc3)OC(c3c[nH]c4c(N)ncnc34)C2O1 (configuration not stated)", "active"),
    ("OC(c1cc(-c2ccc(Cl)cc2)nc2c(Cl)cccc12)C1CCCCN1 (configuration not stated)", "active"),
    ("N#CC(I)CS(=O)(=O)c1ccccc1 (configuration not stated)", "active"),
    ("C=C1C(=O)OC2CC3(C)CCCC(C)C3=CC12 (configuration not stated)", "active"),
    ("CCN(CC)c1ccc(/C=C\\C(=O)c2ccc(NC(C)=O)cc2)cc1", "inactive"),
    ("CC(C)(C)c1ccc(O)c(Br)c1", "active"),
    ("CCOc1ccc(NC(=O)/C(=N\\N)C(C(=O)OC)c2nc3ccc(Cl)cc3[nH]c2=O)cc1 (configuration not stated)", "inactive"),
    ("Cc1ccc(Nc2ccc(O)c3c2C(=O)c2c(O)ccc(Nc4ccc(C)cc4)c2C3=O)cc1", "inactive"),
    ("CC(C)c1ccc(C(=O)OC2CCCC2)cc1", "inactive"),
    ("COc1cc([C@@H]2c3cc4c(cc3[C@H](OC3OC5COC(c6ccccc6)OC5C(O)C3O)[C@H]3COC(=O)[C@H]23)OCO4)cc(OC)c1OC (some centres not stated)", "active"),
    ("CCOC(=O)c1c(C)[nH]c2ccc(O)cc12", "active"),
    ("Cc1c(O)ccc(SC#N)c1C", "active"),
    ("O=C(NOC(=O)c1ccccc1)c1ccccc1", "active"),
    ("COC(=O)c1cc([N+](=O)[O-])cc([N+](=O)[O-])c1Cl", "active"),
    ("O=C(CCc1ccccc1)ON1C(=S)NC(c2ccccc2)(c2ccccc2)C1=S", "inactive"),
    ("CC1(C)N=c2cc3c(cc2N1c1ccc(Cl)cc1)=Nc1ccccc1N3c1ccc(Cl)cc1", "active"),
    ("O=C1c2ccccc2C(=O)c2c(O)c(Cl)cc(O)c21", "inactive"),
    ("CCOc1cc2c(cc1O)/C(=N\\OC)C[C@@H]1[C@@H]2CC[C@]2(C)[C@@H](O)CC[C@@H]12", "inactive"),
    ("O=C(c1ccccc1)C(O)C(Br)(CBr)c1ccccc1 (configuration not stated)", "active"),
    ("COc1c(C)c2c(c(O)c1C/C=C(\\C)CCC(=O)O)C(=O)OC2", "active"),
    ("Fc1ccc(NCCS)cc1", "active"),
    ("C/C=C/c1cc2c(c(=O)o1)C(=O)[C@@H](O)[C@H](C)O2", "inactive"),
    ("[Cl-].[Rh+3].c1ccc(-c2ccnc3c2ccc2c(-c4ccccc4)ccnc23)cc1.c1ccc(-c2ccnc3c2ccc2c(-c4ccccc4)ccnc23)cc1.c1ccc(-c2ccnc3c2ccc2c(-c4ccccc4)ccnc23)cc1", "active"),
    ("O=C(/C=C/c1ccccc1)c1ccccc1O", "inactive"),
    ("Oc1c(Cl)cc(Cl)cc1C(c1cc(Cl)cc(Cl)c1O)C(Cl)(Cl)Cl", "active"),
    ("C/C(=N\\NC(=S)N1CC2CCC(CC2)C1)c1ccccn1", "active"),
    ("COc1ccc(C(OCC2OC(n3ccc(NC(=O)c4ccccc4)nc3=O)C(O)C2O)(c2ccccc2)c2ccccc2)cc1 (configuration not stated)", "inactive"),
    ("NC(=S)Nc1ccc2c(c1)Cc1ccccc1-2", "inactive"),
    ("CCCCOS(=O)(=O)c1ccccc1", "inactive"),
    ("c1ccc(-c2cc3cc4ccccc4cn3c2)cc1", "active"),
    ("COc1cc(-c2ccc(-[n+]3nc(-c4ccc([N+](=O)[O-])cc4)nn3-c3ccc([N+](=O)[O-])cc3)c(OC)c2)ccc1-[n+]1nc(-c2ccc([N+](=O)[O-])cc2)nn1-c1ccc([N+](=O)[O-])cc1", "active"),
    ("C=c1c2ccccc2oc2nc3[nH]c(N)c(C#N)c(N)c3c(=N)c12", "active"),
    ("NNc1ccc(Cl)cc1Cl", "inactive"),
    ("CCCN(CCC)C(=O)c1ccc(C)cc1", "inactive"),
    ("C[C@@H]1CCC([C@@H](C)[C@H]2CC[C@H]3[C@@H]4CC[C@H]5C[C@@H](O)CC[C@]5(C)[C@H]4CC[C@]23C)=NC1", "active"),
    ("Cc1nnc(N/N=C/c2ccc([N+](=O)[O-])o2)[nH]c1=O", "inactive"),
    ("COc1cc(OC)c(/C=C/c2c3ccccc3cc[n+]2C)c(OC)c1", "inactive"),
    ("CN(C)CC(C)(CN(C)C)C(=O)/C=C/c1c(Cl)cccc1Cl", "active"),
]
